assay: thallium flux activation in parental CHO cells, counter-screen for KCNQ1 potentiator project (AID 493006); details: parental CHO-K1 cells, FluxOR thallium flux, at 10 µM;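 for activation: fluorescence ratio of max minus min over baseline after K+ and Tl+ depolarization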
Calls of active or inactive are those of the source.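 Rule for the calls: active = duplicate-averaged activation above buffer control mean plus 5 SD of those controls; inactive = the rest.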
Select the correct class. Options are active, inactive and nothing else.

Previously resolved entries follow.
>>> print(df.to_string())
                                   compound  category
0           CCOC(=O)Cn1c(C(=O)OCC)cc2sccc21  inactive
1  Cc1sc(-n2c(C)cc(/C=N/n3cnnc3)c2C)c(C#N)c1C  inactive
2     C=CCn1c(=S)[nH]c2cc(-c3ccccc3)sc2c1=O  inactive

Hi, sorry to bother you, what did the test record for `CC(C)(C)c1ccc(OCC(=O)NNC(=S)NC(=O)c2ccco2)c(Br)c1` ? active

GET /call?item= `CC(=O)O[C@H]1CSC[C@H]1NC(=O)c1ccccc1` returns the recorded outcome of this test. inactive

Just curious, what result did `COc1cccc(/C=N/n2c(-c3cccs3)n[nH]c2=S)c1` get here? active

Short answer needed: outcome of this test for `O=C(CNC(=S)NC(=O)c1ccc(Br)o1)c1ccccc1` ? inactive

Just curious, what result did CC1(c2ccc(OC(F)F)cc2)NC(=O)N(CC(=O)Nc2ccc3c(c2)OCO3)C1=O (stereo unspecified) get here? inactive

Outcome? Cc1cccc(/C=C2/S/C(=N/N=C3\CC4CCC3(C)C4(C)C)NC2=O)c1 (stereo unspecified) inactive

Hi, sorry to bother you, what did the test record for `O=C(Oc1c(-c2ccco2)oc2ccccc2c1=O)c1cccnc1` ? inactive

// param item: `COc1ccccc1/C=C1\N=C(C(C)(C)C)OC1=O` ; yields the recorded call inactive

// outcome(item) with item = `CC(C)(C)c1ccc(C(=O)NC(=S)NNC(=O)COc2ccccc2)cc1` active

Per the assay record, what outcome was assigned to `N=c1ncn(Cc2ccccc2)c2nc(SCCOc3ccccc3)[nH]c12` ? inactive

Identify the outcome logged in this assay for the compound shown: `CS(=O)(=O)N1CCC(C(=O)Nc2ccc(OCc3ccccc3)cc2)CC1` inactive

Please let me know the test result on file for `CCc1ccc(NC(=O)C(=O)NNC(=O)c2ccc(OC)cc2)cc1` . active

Please state the recorded outcome for this compound: `S=c1[nH]c(-c2ccc(Cl)cc2)cs1` active

Please share the test call associated with `COc1cccc(NC(=O)CSCc2cc(=O)n3ccsc3n2)c1` . inactive

Would you mind telling me which call this test gave `O=c1c2ccccc2nc(-c2cccc(Cl)c2)n1O` ? active

Recorded test call requested for `COc1cccc2sc(N(CCCN(C)C)C(=O)CCS(=O)(=O)c3ccccc3)nc12` inactive

---

assay: thallium flux activation in parental CHO cells, counter-screen for KCNQ1 potentiator project (AID 493006); details: parental CHO-K1 cells, FluxOR thallium flux, at 10 µM;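 for activation: fluorescence ratio of max minus min over baseline after K+ and Tl+ depolarization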
Calls of active or inactive are those of the source.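 How the source made its calls: active means duplicate-averaged activation above buffer control mean plus 5 SD of those controls; inactive means the rest.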
Could you please pick one outcome from this set? label 1 (active), label 0 (inactive)

Below, 3 compounds whose answers are already recorded.
                                   compound  category
0  Cn1c(O)c(N=NC(=S)Nc2ccccc2F)c2cc(S(=O)(=O)N3CCOCC3)ccc21   label 0
1  Cc1ccc(S(=O)(=O)NN2C(=O)/C(=C/c3cccs3)SC2=S)cc1   label 1
2    Cc1ccc(Nc2c(-c3ccc(C)o3)nc3cnccn23)cc1   label 0

Hi, do you know how `COc1ccc(C(=O)O/N=C(\N)Cc2ccc(Cl)cc2)cc1OC` came out in this test? label 0

---

target: Potassium voltage-gated channel subfamily KQT member 1 (Homo sapiens) (UniProt P51787); assay: KCNQ1 potassium channel potentiators, confirmation, FluxOR thallium flux, CHO cells, duplicates (AID 493007); conditions: KCNQ1 cell line, FluxOR thallium flux fluorescence, at 10 µM, % of reference activator effect, buffer zero
Sequence (P51787 whole entry, looked up): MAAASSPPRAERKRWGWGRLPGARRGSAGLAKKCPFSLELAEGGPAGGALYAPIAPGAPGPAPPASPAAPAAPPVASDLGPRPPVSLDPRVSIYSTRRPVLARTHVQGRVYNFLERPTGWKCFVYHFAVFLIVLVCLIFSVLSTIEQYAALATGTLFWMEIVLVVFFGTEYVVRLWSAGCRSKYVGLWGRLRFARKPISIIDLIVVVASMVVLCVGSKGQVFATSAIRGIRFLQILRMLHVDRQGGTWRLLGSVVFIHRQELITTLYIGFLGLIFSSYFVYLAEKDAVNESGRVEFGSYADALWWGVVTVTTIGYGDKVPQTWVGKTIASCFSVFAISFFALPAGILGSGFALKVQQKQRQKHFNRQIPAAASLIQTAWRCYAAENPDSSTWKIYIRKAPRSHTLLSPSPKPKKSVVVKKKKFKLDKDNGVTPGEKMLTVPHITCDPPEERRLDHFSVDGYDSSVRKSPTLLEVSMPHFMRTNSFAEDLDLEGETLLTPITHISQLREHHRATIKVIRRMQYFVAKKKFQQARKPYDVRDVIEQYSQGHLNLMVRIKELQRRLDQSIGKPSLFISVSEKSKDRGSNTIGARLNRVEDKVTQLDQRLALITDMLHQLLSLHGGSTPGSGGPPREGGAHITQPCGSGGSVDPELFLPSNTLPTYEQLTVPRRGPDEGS
Activity calls are given as the source filed them.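 The calls were made as follows: active = potentiation averaged over duplicate wells exceeding buffer-only control mean by more than 3 SD; inactive = the rest.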
The categories you may choose from are active, inactive

Take a look at these entries with their results.
>>> print(df.to_string())
                                   molecule  category
0     O=C(CSc1nc2cc(Cl)ccc2s1)c1cc2ccccc2o1  inactive
1  O=C(O)c1ccc([N+](=O)[O-])c(CS(=O)(=O)c2ccccc2)c1  inactive
2  Cc1nc(SCC(=O)NCC2CCCO2)c2c3c(sc2n1)CCCC3 (configuration not stated)    active
3         CCn1c(SCC(=O)c2cccs2)nnc1-c1cccs1  inactive
4  CCOC(=O)c1cccc(C(=O)Nc2nc3ccc(OC)cc3s2)n1  inactive
5   Cc1cnc(NC(=O)c2ccc(-c3nc4ccccc4s3)o2)s1  inactive

Field: outcome | Entry: `Cc1ccc(-c2nc3ccccc3o2)cc1NC(=S)NC(=O)c1cc2ccccc2o1` active

Entry `CCN(CC)CC(=O)Nc1ccc2c(c1)Nc1ccccc1CC2` : call = ? active

Returns: the outcome recorded for Cc1cc([N+](=O)[O-])ccc1-c1ccc(C2Nc3ccccc3C(=O)N2O)o1 (configuration not stated) in this assay. active

Outcome? `Cc1ccc(NC(=O)C(=O)NNC(=O)c2ccccc2C)cc1Cl` active

Hey, what did the test say about COc1cccc2sc(NNC(=O)C3COc4ccccc4O3)nc12 (configuration not stated) ? inactive

Recorded test outcome, item Cn1ccnc1C(OC(=O)c1ccc(Cl)cc1)C(F)(F)F (configuration not stated) inactive

Outcome logged for `CCCOc1ccc(CN(CCC#N)C(=S)NC(=O)c2ccccc2)cc1` in this assay: active

Recorded call for `Cc1cccc(-n2c(=S)[nH]c3sc4c(c3c2=O)CCc2ccccc2-4)c1` ? active

Look up the recorded call for O=C(NC(=S)NC1CCCc2ccccc21)c1ccco1 (configuration not stated) in this test. active

Fill in: this test's call for `COC(=O)c1ccc(CSc2nnc(SCc3ccc(C(=O)OC)o3)s2)o1` is ___ inactive

Per the assay record, what outcome was assigned to `Cc1ccc(OCC(=O)NNC(=S)NC(=O)c2cccs2)c(C)c1` ? active

---

experiment: thallium flux activation in parental CHO cells, counter-screen for KCNQ1 potentiator project (AID 493006); settings: parental CHO-K1 cells, FluxOR thallium flux, at 10 µM; hits give high values;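 for activation: fluorescence ratio of max minus min over baseline after K+ and Tl+ depolarization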
Active and inactive are the calls of the source.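 How the source made its calls: active means duplicate-averaged activation above buffer control mean plus 5 SD of those controls; inactive means the rest.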
measured_property: activation

Look over these answered cases.
>>> df
                               smiles_entry  measured_property         result
0  O=c1c2c(-c3ccco3)csc2nc(SCc2cn3cccnc3n2)n1-c1ccccc1         activation       inactive
1  CC(=O)/C(=N/Nc1ccc([N+](=O)[O-])cc1)N1CCCc2ccccc21         activation       inactive
2  CCCCCCCCCCCCN1[C@@H](CC(=O)O)c2cc(F)ccc2S1(=O)=O         activation  230% (active)
3    Cc1sc2ncnc(SCC(=O)NC(=O)c3cccn3C)c2c1C         activation  170% (active)
4  Cc1ccc(N2C(=O)N3[C@H](c4ccc(F)cc4)[C@@H]4C(=O)N(C5CCCCC5)C(=O)[C@@H]4[C@]3(Cc3ccccc3)C2=O)cc1         activation       inactive

Then this compound:
Entry `CC(=O)C[C@H]1c2cc(C(F)(F)F)ccc2S(=O)(=O)N1C1CCCCC1` , activation reported as inactive

---

biological target: Short transient receptor potential channel 6 (Mus musculus); test: activation of mouse TRPC6 channel, confirmation, selectivity assay for TRPC4 activator project, cell-based, HEK293, membrane potential dye, duplicate (AID 434950); settings: HEK293 TRPC6, membrane potential fluorescence, at 10 µM;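 for activation: 0% = buffer only wells and 100% = acetylcholine maximal-effect wells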
Calls of active or inactive are those of the source.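 How the source made its calls: active means membrane potential signal rise above negative control mean plus 3 SD in both duplicates, also active in the earlier TRPC4 screen; inactive means the rest.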
Your reply should match one of these outcome classes. true (1) = active, false (0) = inactive

// known answers, use as guide
>>> df
                                   molecule   category
0  CC1CC(C)CN(CCCNC(=O)COc2cc(=O)n(C)c3ccccc23)C1 (stereo not drawn)  false (0)
1  CN(C)C(CNC(=O)/C=C/c1cccc(Cl)c1)c1ccccc1 (stereo not drawn)   true (1)
2  CCN1CCN(c2ccc(S(=O)(=O)N3CCCCC3)cc2NC(=O)c2cccc(C)c2[N+](=O)[O-])CC1  false (0)
3  COc1ccc2nc(NS(=O)(=O)c3ccc(NC(C)=O)cc3)sc2c1   true (1)
4  CC(=O)Nc1ccc(CN2CCCC(C(=O)c3ccc(C(F)(F)F)cc3)C2)cc1 (stereo not drawn)   true (1)
5     O=C(C[n+]1cc2ccccc2c2ccccc21)c1ccccc1  false (0)
6  O=C(c1sc2ccccc2c1Cl)N(Cc1ccco1)C1CCS(=O)(=O)C1 (stereo not drawn)   true (1)
7  Cc1ccc2c(C)c(C(=O)N(Cc3cccs3)C3CCS(=O)(=O)C3)oc2c1 (stereo not drawn)   true (1)

Test call, this molecule: `Cc1ccc2c(nc3s/c(=C\c4ccc(-c5ccccc5C(=O)O)o4)c(=O)n32)c1C` true (1)

# outcome recorded in this test, key = `CC(C)(C)c1ccc(C(=O)NC(=S)NNC(=O)c2cccs2)cc1` false (0)

What was the test verdict on Cc1ccc(Cl)cc1NC(=O)CNCC(c1ccccc1)N(C)C (stereo not drawn) ? true (1)

So what was the verdict on `CCCN(CCC)CCCNc1ccc2nnc(-c3ccc(F)cc3)n2n1` in this test? false (0)

Please share the test call associated with `Cc1ccccc1NC(=S)NCCc1ccccn1` . false (0)

Hi team, can someone confirm the assay call for `CCN1C(=O)c2cccc3c(S(=O)(=O)Nc4ccccc4OC)ccc1c23` ? false (0)

Status in this test for `CC(C)(C)c1ccccc1NC(=O)NC1CCN(Cc2c(F)cccc2Cl)CC1` ? true (1)

What is the recorded call for this molecule in the test? COc1cc(OC)cc(C(=O)NC2CCCN(Cc3ccc(Cl)cc3)C2)c1 (stereo not drawn) true (1)

State the result this test recorded for `CCOC(=O)[C@@H]1CCNC[C@@H]1c1ccccc1` . true (1)

Hey, what did the test say about COc1ccc(C(CNC(=O)c2cc(SC)ccc2Cl)N(C)C)cc1 (stereo not drawn) ? true (1)

Recorded test call requested for `Cc1onc(-c2ccccc2)c1C(=O)NNC(=S)NC(=O)c1ccc(F)cc1` true (1)

Which outcome was assigned to `CC(=O)N1CCc2cc(Br)cc(S(=O)(=O)NCCCN(C)Cc3ccccc3)c21` in this test? false (0)

Returns: the outcome recorded for `CCCN(CCC)CCNC(=S)Nc1ccc2nc3n(c(=O)c2c1)CCCCC3` in this assay. true (1)

Please let me know the test result on file for CCN1CCN(c2ccc(S(=O)(=O)N3CCCCC3)cc2NC(=O)C(C)Oc2ccc(F)cc2)CC1 (stereo not drawn) . true (1)

Call for entry CCOc1ccccc1CN1CCNC(=O)C1CC(=O)NCCc1ccccn1 (stereo not drawn) : true (1)

Check the results log: what was the call for Cc1ccc(C2N(c3ccc(Cl)c(Cl)c3)C(=O)C3CCCN32)o1 (stereo not drawn) ? false (0)

// param item: CN(CCc1ccccn1)C(=O)CC1C(=O)NCCN1Cc1ccccc1C(F)(F)F (stereo not drawn) ; yields the recorded call false (0)

Kindly provide the recorded test outcome for the following molecule: `CCCN(CCC)CCCNC(=O)C1CCN(S(=O)(=O)c2cccc3nsnc23)CC1` false (0)

Called result for CCc1ccc(C(CNc2nc(C(F)(F)F)nc3ccccc23)N(C)C)cc1 (stereo not drawn) false (0)

Please share the test call associated with COc1ccc(/C=C/C(=O)Nc2ccccc2C(=O)NCC(c2ccc(OC)cc2)N(C)C)cc1 (stereo not drawn) . false (0)

Can you look up the reported call for COc1ccc(C(CNC(=O)c2cccc(NS(=O)(=O)c3ccc(C)c(F)c3)c2)N(C)C)cc1 (stereo not drawn) for me? true (1)

What was the test verdict on CCn1c(=O)cc(OCC(=O)NCCCN2CC(C)CC(C)C2)c2ccccc21 (stereo not drawn) ? false (0)

How did this test come out for `CC(C)(C)c1cc(Cl)ccc1OCCn1ccnc1` ? false (0)

State the result this test recorded for `O=C(NC(=S)NNC(=O)[C@H]1C[C@@H]1c1ccccc1)c1cccc(F)c1` . false (0)

Which outcome was entered for the molecule `Cn1c(O)c(/C=N/NC(=O)c2cc3ccccc3cc2O)c2ccccc21` in this test? true (1)
